Target: KDR (Homo sapiens, UniProt P35968)
Assay: KDR Enzymatic Assay (fluorescence polarization competition immunoassay)
Assay type: biochemical
Conditions: text commentary on Table 1
Sequence (P35968 20-1356, species assumed): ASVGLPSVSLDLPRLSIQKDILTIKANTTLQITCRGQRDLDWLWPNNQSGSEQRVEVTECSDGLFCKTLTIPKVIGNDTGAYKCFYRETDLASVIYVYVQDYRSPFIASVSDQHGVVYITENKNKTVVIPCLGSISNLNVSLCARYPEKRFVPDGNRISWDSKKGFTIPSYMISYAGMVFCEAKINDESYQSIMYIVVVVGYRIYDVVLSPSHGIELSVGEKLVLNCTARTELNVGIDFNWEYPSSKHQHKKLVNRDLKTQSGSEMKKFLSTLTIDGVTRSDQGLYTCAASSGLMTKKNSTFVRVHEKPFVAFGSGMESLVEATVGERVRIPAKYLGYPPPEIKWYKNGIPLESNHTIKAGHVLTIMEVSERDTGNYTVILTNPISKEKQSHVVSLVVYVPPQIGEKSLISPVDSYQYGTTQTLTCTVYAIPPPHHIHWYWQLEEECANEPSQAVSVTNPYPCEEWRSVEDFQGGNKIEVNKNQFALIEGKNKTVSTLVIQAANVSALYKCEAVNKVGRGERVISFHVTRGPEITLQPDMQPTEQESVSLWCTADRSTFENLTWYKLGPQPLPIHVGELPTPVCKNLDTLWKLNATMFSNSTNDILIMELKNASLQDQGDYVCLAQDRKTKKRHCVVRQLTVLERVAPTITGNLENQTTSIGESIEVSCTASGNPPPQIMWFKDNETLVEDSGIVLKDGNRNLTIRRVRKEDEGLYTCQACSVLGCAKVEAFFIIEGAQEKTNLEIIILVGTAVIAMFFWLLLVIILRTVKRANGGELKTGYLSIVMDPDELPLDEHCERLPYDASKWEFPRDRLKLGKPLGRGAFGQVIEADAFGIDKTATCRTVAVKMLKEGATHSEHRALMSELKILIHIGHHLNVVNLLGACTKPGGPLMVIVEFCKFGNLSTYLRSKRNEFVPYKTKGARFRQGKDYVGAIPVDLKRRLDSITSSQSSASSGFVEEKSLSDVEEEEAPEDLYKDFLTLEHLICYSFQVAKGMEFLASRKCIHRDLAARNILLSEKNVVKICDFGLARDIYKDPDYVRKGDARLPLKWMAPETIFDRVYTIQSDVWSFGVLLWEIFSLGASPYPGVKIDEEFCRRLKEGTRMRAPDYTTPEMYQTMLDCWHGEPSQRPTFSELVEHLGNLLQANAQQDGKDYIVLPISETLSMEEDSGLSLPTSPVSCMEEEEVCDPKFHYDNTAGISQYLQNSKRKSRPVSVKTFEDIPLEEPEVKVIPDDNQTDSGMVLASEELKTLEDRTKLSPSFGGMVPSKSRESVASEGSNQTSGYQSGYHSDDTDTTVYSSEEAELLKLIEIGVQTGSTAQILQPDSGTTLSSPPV
Measurement kind: protein tyrosine kinase (KDR) inhibition, potency in words

1. Oc1nc(Nc2ccc3ncsc3c2)nc(N2CCSC(c3ccccc3)C2)n1 (centres unmarked) [Example 9] :: potent inhibitors
2. Oc1nc(Nc2ccc3ncsc3c2)nc(N2CCSCC2c2ccccc2)n1 (centres unmarked) [Example 10] :: potent inhibitors

* * *

Biological target: KDR (Homo sapiens)
Test: KDR Enzymatic Assay (fluorescence polarization competition immunoassay)
Type: biochemical
Conditions: 1.6 nM KDR, 10 μM ATP, 10 μg/ml poly(E4,Y); averages of three independent measurements; read-out: IC50 Enzyme
Measurement kind: IC50

# count of solved cases: 2
1) CC(C)(Nc1nc(O)nc(Nc2ccc3ncsc3c2)n1)c1ccccc1 [Example 5] :: < 1 µM
2) CC(C)(Nc1nc(N)nc(Nc2ccc3ncsc3c2)n1)c1ccccc1 [Example 15] :: 1 to 15 µM

// query For the compound shown here, Oc1nc(Nc2ccc3ncsc3c2)nc(N2CCCC2c2ccccc2)n1 (stereo not shown) [Example 8] , give the reported IC50.
// result < 1 µM

// query Consider the compound shown here: CCN(Cc1ccccc1)c1nc(O)nc(Nc2ccc3ncsc3c2)n1 [Example 1] What is its recorded IC50?
// result < 1 µM

* * *

Target: KDR (Homo sapiens, UniProt P35968)
Assay: KDR Cell-Based Assay (VEGF-stimulated MAP kinase activation in HUVEC)
Parameters: which express endogenous Flk-1(KDR); endogenous in cells; host or cells: HUVEC (human umbilical vein endothelial cells)
Details: compounds 30 minutes prior to 25 ng/ml VEGF for 10 minutes, phosphorylated MAP kinase immunoblot
Sequence (P35968 20-1356): as the sequence (P35968 20-1356, species assumed) above
Documented IC50 across a set of molecules

Would you please look over these solved cases?
1. CN(c1ccc2cn[nH]c2c1)c1nc(O)nc(Nc2ccc3ncsc3c2)n1 [Example 11] :: 1000 to 15000 nM
2. CC(C)(Nc1nc(NO)nc(Nc2ccc3ncsc3c2)n1)c1ccccc1 [Example 14] :: 1000 to 15000 nM
3. C[C@@H](Nc1nc(O)nc(Nc2ccc3ncsc3c2)n1)c1ccccc1 [Example 3] :: 1000 to 15000 nM
4. Oc1nc(Nc2ccc3ncsc3c2)nc(N2CCSCC2c2ccccc2)n1 (stereo not shown) [Example 10] :: 1000 to 15000 nM
5. CN(CCc1ccccn1)c1nc(O)nc(Nc2ccc3ncsc3c2)n1 [Example 6] :: 1000 to 15000 nM
6. CC(C)(Nc1nc(O)nc(Nc2ccc3ncsc3c2)n1)c1ccccc1 [Example 5] :: < 1000 nM

// query Fill in: IC50 of Oc1nc(Nc2ccc3ncsc3c2)nc(N2CCCC2c2ccccc2)n1 (stereo not shown) [Example 8] is ___
// result 1000 to 15000 nM

// query Could you tell me which IC50 is on file for Oc1nc(Nc2ccc3ncsc3c2)nc(N2CCSC(c3ccccc3)C2)n1 (stereo not shown) [Example 9] ?
// result 1000 to 15000 nM

// query Fill blank: measured IC50 of the molecule CC(C)(Nc1nc(O)nc(Nc2ccc3ncccc3c2)n1)c1ccccc1 [Example 7] is ____.
// result 1000 to 15000 nM

// query What measured IC50 goes with CCN(Cc1ccccc1)c1nc(O)nc(Nc2ccc3ncsc3c2)n1 [Example 1] ?
// result < 1000 nM

* * *

Target: KDR (Homo sapiens, UniProt P35968)
Test: KDR Enzymatic Assay (fluorescence polarization competition immunoassay)
Type: biochemical
Details: 1.6 nM KDR, 10 μM ATP, 10 μg/ml poly(E4,Y); averages of three independent measurements; read-out: IC50 Enzyme
Experimental: KDR Enzymatic Assay. A fluorescence polarization competition immunoassay was used to determine the compound potency for KDR. The assay was performed in black 96-well microplates (LJL BioSystems). […] The plates were incubated at room temperature for 5 min. […] The plate was covered, incubated for 30 min at room temperature and the fluorescence polarization was read on an ANALYST™ HT Assay Detection System (LJL Biosystems, Sunnyvale, Calif.). […]
Measurement kind: IC50

# example entries with known answers
1. CN(CCc1ccccn1)c1nc(O)nc(Nc2ccc3ncsc3c2)n1 [Example 6] :: < 1000 nM
2. CC(C)(Nc1ncnc(Nc2ccc3ncsc3c2)n1)c1ccccc1 [Example 16] :: 1000 to 15000 nM
3. CC(C)(Nc1nc(O)nc(Nc2ccc3ncccc3c2)n1)c1ccccc1 [Example 7] :: < 1000 nM
4. Oc1nc(Nc2ccc3ncsc3c2)nc(N2CCSCC2c2ccccc2)n1 (stereo not drawn) [Example 10] :: < 1000 nM
5. Oc1nc(Nc2ccc3ncsc3c2)nc(N2CCSC(c3ccccc3)C2)n1 (stereo not drawn) [Example 9] :: < 1000 nM
6. C[C@H](Nc1nc(O)nc(Nc2ccc3ncsc3c2)n1)c1ccccc1 [Example 4] :: 1000 to 15000 nM
7. CN(c1ccc2cn[nH]c2c1)c1nc(O)nc(Nc2ccc3ncsc3c2)n1 [Example 11] :: < 1000 nM
8. C[C@@H](Nc1nc(O)nc(Nc2ccc3ncsc3c2)n1)c1ccccc1 [Example 3] :: < 1000 nM

Shifting focus to the compound that follows.
// query IC50 for CC(C)(Nc1nc(NO)nc(Nc2ccc3ncsc3c2)n1)c1ccccc1 [Example 14] ?
// result < 1000 nM

* * *

Biological target: KDR (Homo sapiens)
Assay: KDR Enzymatic Assay (fluorescence polarization competition immunoassay)
Format: biochemical
Conditions: 1.6 nM KDR, 10 μM ATP, 10 μg/ml poly(E4,Y); averages of three independent measurements; read-out: IC50 Enzyme
pIC50: −log10 of the molar value.
Measurement kind: pIC50

1. COc1nc(Nc2ccc3ncsc3c2)nc(NC(C)(C)c2ccccc2)n1 [Example 17] :: 4.82 to 6.00
2. CC(C)(Nc1nc(Nc2ccc3ncsc3c2)nc(OCc2ccccc2)n1)c1ccccc1 [Example 18] :: 4.82 to 6.00

API: the following record is the query input.
// query KDR (Homo sapiens) / pIC50 / Oc1nc(NCc2ccccc2)nc(Nc2ccc3ncsc3c2)n1 [Example 2] : value?
// result 4.82 to 6.00
